# SUBJECT_OF_TEST: T1, IL10Rα/IL2Rγ receptor (human) (UniProt Q13651)
# T1 sequence (looked up) 1: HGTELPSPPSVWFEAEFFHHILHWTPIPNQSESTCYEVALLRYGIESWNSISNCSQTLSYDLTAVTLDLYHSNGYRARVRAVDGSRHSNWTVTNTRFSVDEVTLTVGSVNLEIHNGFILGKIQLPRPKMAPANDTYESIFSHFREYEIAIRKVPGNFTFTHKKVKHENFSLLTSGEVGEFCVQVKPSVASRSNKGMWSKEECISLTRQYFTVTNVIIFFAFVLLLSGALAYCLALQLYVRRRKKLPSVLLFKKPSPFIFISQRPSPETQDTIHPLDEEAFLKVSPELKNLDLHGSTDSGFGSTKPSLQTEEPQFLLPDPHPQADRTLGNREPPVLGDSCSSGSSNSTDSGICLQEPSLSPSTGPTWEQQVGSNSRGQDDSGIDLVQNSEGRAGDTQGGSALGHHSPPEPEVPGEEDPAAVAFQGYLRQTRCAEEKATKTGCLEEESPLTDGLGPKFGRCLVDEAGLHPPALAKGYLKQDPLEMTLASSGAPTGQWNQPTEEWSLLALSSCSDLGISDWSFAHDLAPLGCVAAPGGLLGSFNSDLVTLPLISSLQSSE
# T1 sequence (looked up) 2: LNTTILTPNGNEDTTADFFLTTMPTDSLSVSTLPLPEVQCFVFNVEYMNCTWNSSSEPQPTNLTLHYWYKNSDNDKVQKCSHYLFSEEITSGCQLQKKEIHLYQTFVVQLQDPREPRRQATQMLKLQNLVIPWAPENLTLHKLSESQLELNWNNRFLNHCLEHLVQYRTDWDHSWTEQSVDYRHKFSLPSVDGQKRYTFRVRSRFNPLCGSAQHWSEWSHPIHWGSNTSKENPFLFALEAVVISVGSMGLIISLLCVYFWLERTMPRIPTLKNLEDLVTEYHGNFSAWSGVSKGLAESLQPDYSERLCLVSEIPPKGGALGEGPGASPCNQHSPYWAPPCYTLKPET
# ASSAY_OVERVIEW: cell-based or functional assay

BINDER: hIL10Ra_VHH14 - hIL2Rg_VHH19, linker GGGS, tag his (bispecific antibody, not shown: small tags and cut ends) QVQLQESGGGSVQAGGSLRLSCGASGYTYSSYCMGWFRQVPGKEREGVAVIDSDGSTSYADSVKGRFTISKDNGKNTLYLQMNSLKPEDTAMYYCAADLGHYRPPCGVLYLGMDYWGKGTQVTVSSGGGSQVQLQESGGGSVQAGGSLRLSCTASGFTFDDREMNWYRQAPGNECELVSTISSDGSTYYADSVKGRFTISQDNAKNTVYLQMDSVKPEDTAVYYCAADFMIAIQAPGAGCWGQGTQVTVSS
IL-9 secretion, CD8 T cells, at 1 µM [pg/mL]: 1400

BINDER: hIL10Ra_VHH14 - hIL2Rg_VHH19, No linker, tag his (bispecific antibody, not shown: small tags and cut ends) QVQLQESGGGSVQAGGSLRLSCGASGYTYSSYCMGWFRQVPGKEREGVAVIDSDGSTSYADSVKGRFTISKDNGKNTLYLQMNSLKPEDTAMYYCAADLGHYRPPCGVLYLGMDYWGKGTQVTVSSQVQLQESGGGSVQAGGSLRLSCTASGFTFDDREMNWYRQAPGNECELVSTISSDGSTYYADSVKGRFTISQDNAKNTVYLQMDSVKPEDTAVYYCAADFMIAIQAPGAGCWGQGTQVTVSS
IL-9 secretion, CD8 T cells, at 1 µM [pg/mL]: 1220

BINDER: hIL10Ra_VHH14 - hIL2Rg_VHH19, linker GGGSGGGS, tag his (bispecific antibody, not shown: small tags and cut ends) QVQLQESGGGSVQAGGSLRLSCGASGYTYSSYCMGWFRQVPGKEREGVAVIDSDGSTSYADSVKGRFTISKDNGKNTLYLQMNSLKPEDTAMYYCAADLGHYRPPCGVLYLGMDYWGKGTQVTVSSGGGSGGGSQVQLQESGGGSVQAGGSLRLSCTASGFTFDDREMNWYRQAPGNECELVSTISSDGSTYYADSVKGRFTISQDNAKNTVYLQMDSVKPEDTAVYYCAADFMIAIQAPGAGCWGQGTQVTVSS
IL-9 secretion, CD8 T cells, at 1 µM [pg/mL]: 1380
